Taken from PubChem BioAssay AID720543.

Entries and their inhibition values follow.
- assayedTarget: (Lyso)-N-acylphosphatidylethanolamine lipase (Mus musculus)
- assayProcedure: ABHD4 inhibitors, primary screen, biochemical, fluorescence polarization, mouse (AID 720543);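 further: 0% = plate median of compound wells and 100% = S159A mutant with DMSO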
- studyConditions: purified mABHD4, FP-Rh probe fluorescence polarization; at 8.92 µM; hits give high values
Hit rate of the full screen: of about 370,000 compounds, about 2,000 (0.54%) were called active. This excerpt belongs to a sample that is enriched for actives.

{"columns": ["molecule", "inhibition [%]"],
 "data": [
  ["CCCCc1c(-c2ccc(Br)cc2)ncn1CCc1ccccc1OC", -0.8],
  ["COc1ccc(-n2c(SCC(=O)Nc3ccc4cn[nH]c4c3)nnc2-c2cccnc2)cc1", 0.5],
  ["CC1CCCN(S(=O)(=O)c2ccc(-c3ccc(=O)[nH]n3)o2)C1 (stereo unspecified)", -2.46],
  ["COCCCn1c(SCC(=O)Nc2oc(C)c3c(C)n[nH]c(=O)c23)nc2sc3c(c2c1=O)CCC3", -0.16],
  ["O=C1CC[C@@]23CCCN2C(=O)CCC[C@H]3[C@H]1Cc1ccccc1", -0.8],
  ["c1ccc(CNCc2ccc(CNCc3ccccc3)cc2)cc1", 5.37],
  ["CC(C)c1ccc(NC(=S)NNc2ccc(Cl)c(C(=O)O)c2)cc1", 37.3],
  ["O=S1(=O)c2ccc(Br)cc2-n2nncc2CN1Cc1cccc(Cl)c1", -5.52],
  ["CC12C(=O)N(n3cnnc3)C(=O)C1C1C=CC2C1 (stereo unspecified)", -1.34],
  ["C[C@@H](NC(=O)c1ccccc1OCC(=O)Nc1ccc(I)cc1)C(=O)N(C)Cc1ccccc1", -28.4],
  ["Cc1ccc(NC2CCCN(C(=O)CCC3(C)CC3)C2)cc1C (stereo unspecified)", 8.21],
  ["NC(=O)C1CCN(C(=O)c2cc(S(=O)(=O)N3CCN(c4ccccc4)CC3)ccc2Cl)CC1", 6.55],
  ["Fc1ccc2nc(COCc3nc4ccc(F)cc4[nH]3)[nH]c2c1", -7.17],
  ["CCC(=O)c1c(CC)c2n3c1=CC[C@H]3CC(Br)C=2 (stereo partly specified)", 3.54],
  ["Cc1ccc(C)c(NC(=O)CCS(=O)(=O)c2ccccc2)c1", -4.18],
  ["CCOC(=O)[C@]12CCC=C1N(Cc1ccccc1)C(=O)[C@H](CC(=O)N1CCCC1)C2", -6.55],
  ["COC(=O)c1cc(N2CCNCC2)nc2ccccc12", 1.72],
  ["CC(=O)N1N=C(c2ccncc2)OC1(Cc1ccccc1)Cc1ccccc1", -3.49],
  ["COC(=O)c1cc2c(c3c4cc(F)ccc4n(S(=O)(=O)c4ccccc4)c13)C(=O)N(Cc1ccccc1OC)C2", -11.3],
  ["COc1ccc(Cn2ccc3ccc(-c4ccc5ccn(Cc6ccccc6C)c5c4)cc32)cc1", 7.66],
  ["CCC[C@H]1C(=O)CC[C@@]23CCCN2C(=O)CCC[C@@H]13", -0.16]
]}
